The following compounds are shown together with reported Tox 30 min values.
# Tested on: neurotoxicity (rotorod)
# Protocol: rotorod test for neurological toxicity (Tox), Phase I, mice ip
# Type: in vivo, male Carworth Farms No. 1 (CF1) mice
# Recorded conditions: 100 mg/kg, 30 min

Guide cases for Tox 30 min, answers given:
{"Compound": "CC1CC(=O)C2=C(C1)Nc1ccccc1S2 (stereo not drawn)", "Tox 30 min": "0/8"}
{"Compound": "COC(=O)[C@@H]1C(=O)C2=C(C[C@H]1C)Nc1ccc(Cl)cc1S2 (relative stereo)", "Tox 30 min": "0/8"}
{"Compound": "COC(=O)[C@@H]1C(=O)C2=C(C[C@H]1C)Nc1ccc(Br)cc1S2 (relative stereo)", "Tox 30 min": "0/4"}
{"Compound": "COC(=O)[C@@H]1C(=O)C2=C(C[C@H]1C)Nc1ccccc1S2 (relative stereo)", "Tox 30 min": "0/8"}
{"Compound": "CCOC(=O)[C@@H]1C(=O)C2=C(C[C@H]1C)Nc1ccc(Cl)cc1S2 (relative stereo)", "Tox 30 min": "0/8"}

Can you share its Tox 30 min? I mean this compound: C[C@@H]1CC2=C(Sc3cc(Br)ccc3N2)C(=O)[C@H]1C(=O)OC(C)(C)C (relative stereo)
0/8

Cool, now CCOC(=O)[C@@H]1C(=O)C2=C(C[C@H]1C)Nc1ccc(Br)cc1S2 (relative stereo)
0/4

Cool, now C[C@@H]1CC2=C(Sc3ccccc3N2)C(=O)[C@H]1C(=O)OC(C)(C)C (relative stereo)
0/8

Cool, now COC(=O)[C@@H]1C(=O)C2=C(C[C@H]1C)Nc1ccc(C)cc1S2 (relative stereo)
0/8

Cool, now C[C@@H]1CC2=C(Sc3cc(Cl)ccc3N2)C(=O)[C@H]1C(=O)OC(C)(C)C (relative stereo)
0/8

Cool, now CCOC(=O)[C@@H]1C(=O)C2=C(C[C@H]1C)Nc1ccc(C)cc1S2 (relative stereo)
0/8

Cool, now CCOC(=O)[C@@H]1C(=O)C2=C(C[C@H]1C)Nc1ccccc1S2 (relative stereo)
0/4

* * *

The following compounds are shown together with reported Tox 4 h values.
# System: neurotoxicity (rotorod)
# Protocol: rotorod test for neurological toxicity (Tox), Phase I, mice ip
# Assay type: in vivo, male Carworth Farms No. 1 (CF1) mice
# Recorded conditions: 30 mg/kg, 4 h

{"Compound": "CCOC(=O)[C@@H]1C(=O)C2=C(C[C@H]1C)Nc1ccc(Cl)cc1S2 (relative stereo) [Compound 4f]", "Tox 4 h": "0/2"}
{"Compound": "C[C@@H]1CC2=C(Sc3ccccc3N2)C(=O)[C@H]1C(=O)OC(C)(C)C (relative stereo) [Compound 4c]", "Tox 4 h": "0/2"}
{"Compound": "C[C@@H]1CC2=C(Sc3cc(Br)ccc3N2)C(=O)[C@H]1C(=O)OC(C)(C)C (relative stereo) [Compound 4l]", "Tox 4 h": "0/2"}

Can you share its Tox 4 h? I mean this compound: CC1CC(=O)C2=C(C1)Nc1ccccc1S2 (stereo not drawn) [Compound 4d]
0/2

Cool, now COC(=O)[C@@H]1C(=O)C2=C(C[C@H]1C)Nc1ccccc1S2 (relative stereo) [Compound 4a]
0/2

Cool, now C[C@@H]1CC2=C(Sc3cc(Cl)ccc3N2)C(=O)[C@H]1C(=O)OC(C)(C)C (relative stereo) [Compound 4g]
0/2

Cool, now CCOC(=O)[C@@H]1C(=O)C2=C(C[C@H]1C)Nc1ccc(C)cc1S2 (relative stereo) [Compound 4i]
0/2

Cool, now COC(=O)[C@@H]1C(=O)C2=C(C[C@H]1C)Nc1ccc(Br)cc1S2 (relative stereo) [Compound 4j]
0/4

Cool, now CCOC(=O)[C@@H]1C(=O)C2=C(C[C@H]1C)Nc1ccc(Br)cc1S2 (relative stereo) [Compound 4k]
0/4

Cool, now COC(=O)[C@@H]1C(=O)C2=C(C[C@H]1C)Nc1ccc(C)cc1S2 (relative stereo) [Compound 4h]
0/2

Cool, now COC(=O)[C@@H]1C(=O)C2=C(C[C@H]1C)Nc1ccc(Cl)cc1S2 (relative stereo) [Compound 4e]
0/2

Cool, now CCOC(=O)[C@@H]1C(=O)C2=C(C[C@H]1C)Nc1ccccc1S2 (relative stereo) [Compound 4b]
0/4

* * *

# Test system: maximal electroshock seizures
# Protocol: maximal electroshock (MES) test, oral rat (Phase VIA/VIB)
# Format: in vivo, male Sprague-Dawley rats
# Recorded conditions: 30 mg/kg, 0.25 h
Readout: responders at 30 mg/kg

{"Molecule": "CCOC(=O)[C@@H]1C(=O)C2=C(C[C@H]1C)Nc1ccc(C)cc1S2 (relative stereo)", "Reading": "0%"}
{"Molecule": "CCOC(=O)[C@@H]1C(=O)C2=C(C[C@H]1C)Nc1ccccc1S2 (relative stereo)", "Reading": "75%"}

Can you share its responders at 30 mg/kg? I mean this molecule: COC(=O)[C@@H]1C(=O)C2=C(C[C@H]1C)Nc1ccc(Br)cc1S2 (relative stereo)
50%

* * *

The following compounds are shown together with reported Tox 30 min values.
# Test system: neurotoxicity (rotorod)
# Protocol: rotorod test for neurological toxicity (Tox), Phase I, mice ip
# Format: in vivo, male Carworth Farms No. 1 (CF1) mice
# Recorded conditions: 30 mg/kg, 30 min

Guide cases for Tox 30 min, answers given:
{"Compound": "COC(=O)[C@@H]1C(=O)C2=C(C[C@H]1C)Nc1ccc(C)cc1S2 (relative stereo) [Compound 4h]", "Readout": "Tox 30 min", "Reading": "0/4"}
{"Compound": "C[C@@H]1CC2=C(Sc3ccccc3N2)C(=O)[C@H]1C(=O)OC(C)(C)C (relative stereo) [Compound 4c]", "Readout": "Tox 30 min", "Reading": "0/4"}
{"Compound": "CC1CC(=O)C2=C(C1)Nc1ccccc1S2 (centres unmarked) [Compound 4d]", "Readout": "Tox 30 min", "Reading": "0/4"}
{"Compound": "COC(=O)[C@@H]1C(=O)C2=C(C[C@H]1C)Nc1ccc(Cl)cc1S2 (relative stereo) [Compound 4e]", "Readout": "Tox 30 min", "Reading": "0/4"}
{"Compound": "COC(=O)[C@@H]1C(=O)C2=C(C[C@H]1C)Nc1ccc(Br)cc1S2 (relative stereo) [Compound 4j]", "Readout": "Tox 30 min", "Reading": "0/8"}
{"Compound": "C[C@@H]1CC2=C(Sc3cc(Br)ccc3N2)C(=O)[C@H]1C(=O)OC(C)(C)C (relative stereo) [Compound 4l]", "Readout": "Tox 30 min", "Reading": "0/4"}
{"Compound": "CCOC(=O)[C@@H]1C(=O)C2=C(C[C@H]1C)Nc1ccc(C)cc1S2 (relative stereo) [Compound 4i]", "Readout": "Tox 30 min", "Reading": "0/4"}

Reported Tox 30 min for neurotoxicity (rotorod), given CCOC(=O)[C@@H]1C(=O)C2=C(C[C@H]1C)Nc1ccc(Br)cc1S2 (relative stereo) [Compound 4k] ?
0/8

* * *

# Test system: neurotoxicity (rotorod)
# Protocol: rotorod toxicity, oral rat (Phase VIA/VIB)
# Type: in vivo, male Sprague-Dawley rats
# Recorded conditions: rat oral, 30 mg/kg, 1.00 h
Readout: Tox

Guide cases for Tox, answers given:
{"Compound": "COC(=O)[C@@H]1C(=O)C2=C(C[C@H]1C)Nc1ccc(Cl)cc1S2 (relative stereo)", "Reading": "0/4"}
{"Compound": "CCOC(=O)[C@@H]1C(=O)C2=C(C[C@H]1C)Nc1ccc(C)cc1S2 (relative stereo)", "Reading": "0/4"}
{"Compound": "CCOC(=O)[C@@H]1C(=O)C2=C(C[C@H]1C)Nc1ccc(Cl)cc1S2 (relative stereo)", "Reading": "0/4"}
{"Compound": "CCOC(=O)[C@@H]1C(=O)C2=C(C[C@H]1C)Nc1ccccc1S2 (relative stereo)", "Reading": "0/4"}
{"Compound": "C[C@@H]1CC2=C(Sc3cc(Br)ccc3N2)C(=O)[C@H]1C(=O)OC(C)(C)C (relative stereo)", "Reading": "0/4"}
{"Compound": "COC(=O)[C@@H]1C(=O)C2=C(C[C@H]1C)Nc1ccccc1S2 (relative stereo)", "Reading": "0/4"}

Can you share its Tox? I mean this compound: COC(=O)[C@@H]1C(=O)C2=C(C[C@H]1C)Nc1ccc(Br)cc1S2 (relative stereo)
0/2

* * *

The following compounds are shown together with reported responders at 30 mg/kg values.
# Test system: maximal electroshock seizures
# Protocol: maximal electroshock (MES) test, oral rat (Phase VIA/VIB)
# Assay type: in vivo, male Sprague-Dawley rats
# Recorded conditions: 30 mg/kg, 0.25 h
Write the answer as a number in %, unit excluded.

Guide cases for responders at 30 mg/kg, answers given:
{"Compound": "CCOC(=O)[C@@H]1C(=O)C2=C(C[C@H]1C)Nc1ccc(Cl)cc1S2 (relative stereo) [Compound 4f]", "responders at 30 mg/kg, %": 0}
{"Compound": "C[C@@H]1CC2=C(Sc3cc(Br)ccc3N2)C(=O)[C@H]1C(=O)OC(C)(C)C (relative stereo) [Compound 4l]", "responders at 30 mg/kg, %": 50}
{"Compound": "COC(=O)[C@@H]1C(=O)C2=C(C[C@H]1C)Nc1ccc(Cl)cc1S2 (relative stereo) [Compound 4e]", "responders at 30 mg/kg, %": 0}

Can you share its responders at 30 mg/kg? I mean this compound: COC(=O)[C@@H]1C(=O)C2=C(C[C@H]1C)Nc1ccccc1S2 (relative stereo) [Compound 4a]
0

Hello, the source for this data is patent US5994349A, in case you need it.
